# measurement target: Nav1.7 (or SCN9A) channel (Homo sapiens, UniProt Q15858)
# Construct: expressed in transfected cells
# Sequence (Q15858 whole entry): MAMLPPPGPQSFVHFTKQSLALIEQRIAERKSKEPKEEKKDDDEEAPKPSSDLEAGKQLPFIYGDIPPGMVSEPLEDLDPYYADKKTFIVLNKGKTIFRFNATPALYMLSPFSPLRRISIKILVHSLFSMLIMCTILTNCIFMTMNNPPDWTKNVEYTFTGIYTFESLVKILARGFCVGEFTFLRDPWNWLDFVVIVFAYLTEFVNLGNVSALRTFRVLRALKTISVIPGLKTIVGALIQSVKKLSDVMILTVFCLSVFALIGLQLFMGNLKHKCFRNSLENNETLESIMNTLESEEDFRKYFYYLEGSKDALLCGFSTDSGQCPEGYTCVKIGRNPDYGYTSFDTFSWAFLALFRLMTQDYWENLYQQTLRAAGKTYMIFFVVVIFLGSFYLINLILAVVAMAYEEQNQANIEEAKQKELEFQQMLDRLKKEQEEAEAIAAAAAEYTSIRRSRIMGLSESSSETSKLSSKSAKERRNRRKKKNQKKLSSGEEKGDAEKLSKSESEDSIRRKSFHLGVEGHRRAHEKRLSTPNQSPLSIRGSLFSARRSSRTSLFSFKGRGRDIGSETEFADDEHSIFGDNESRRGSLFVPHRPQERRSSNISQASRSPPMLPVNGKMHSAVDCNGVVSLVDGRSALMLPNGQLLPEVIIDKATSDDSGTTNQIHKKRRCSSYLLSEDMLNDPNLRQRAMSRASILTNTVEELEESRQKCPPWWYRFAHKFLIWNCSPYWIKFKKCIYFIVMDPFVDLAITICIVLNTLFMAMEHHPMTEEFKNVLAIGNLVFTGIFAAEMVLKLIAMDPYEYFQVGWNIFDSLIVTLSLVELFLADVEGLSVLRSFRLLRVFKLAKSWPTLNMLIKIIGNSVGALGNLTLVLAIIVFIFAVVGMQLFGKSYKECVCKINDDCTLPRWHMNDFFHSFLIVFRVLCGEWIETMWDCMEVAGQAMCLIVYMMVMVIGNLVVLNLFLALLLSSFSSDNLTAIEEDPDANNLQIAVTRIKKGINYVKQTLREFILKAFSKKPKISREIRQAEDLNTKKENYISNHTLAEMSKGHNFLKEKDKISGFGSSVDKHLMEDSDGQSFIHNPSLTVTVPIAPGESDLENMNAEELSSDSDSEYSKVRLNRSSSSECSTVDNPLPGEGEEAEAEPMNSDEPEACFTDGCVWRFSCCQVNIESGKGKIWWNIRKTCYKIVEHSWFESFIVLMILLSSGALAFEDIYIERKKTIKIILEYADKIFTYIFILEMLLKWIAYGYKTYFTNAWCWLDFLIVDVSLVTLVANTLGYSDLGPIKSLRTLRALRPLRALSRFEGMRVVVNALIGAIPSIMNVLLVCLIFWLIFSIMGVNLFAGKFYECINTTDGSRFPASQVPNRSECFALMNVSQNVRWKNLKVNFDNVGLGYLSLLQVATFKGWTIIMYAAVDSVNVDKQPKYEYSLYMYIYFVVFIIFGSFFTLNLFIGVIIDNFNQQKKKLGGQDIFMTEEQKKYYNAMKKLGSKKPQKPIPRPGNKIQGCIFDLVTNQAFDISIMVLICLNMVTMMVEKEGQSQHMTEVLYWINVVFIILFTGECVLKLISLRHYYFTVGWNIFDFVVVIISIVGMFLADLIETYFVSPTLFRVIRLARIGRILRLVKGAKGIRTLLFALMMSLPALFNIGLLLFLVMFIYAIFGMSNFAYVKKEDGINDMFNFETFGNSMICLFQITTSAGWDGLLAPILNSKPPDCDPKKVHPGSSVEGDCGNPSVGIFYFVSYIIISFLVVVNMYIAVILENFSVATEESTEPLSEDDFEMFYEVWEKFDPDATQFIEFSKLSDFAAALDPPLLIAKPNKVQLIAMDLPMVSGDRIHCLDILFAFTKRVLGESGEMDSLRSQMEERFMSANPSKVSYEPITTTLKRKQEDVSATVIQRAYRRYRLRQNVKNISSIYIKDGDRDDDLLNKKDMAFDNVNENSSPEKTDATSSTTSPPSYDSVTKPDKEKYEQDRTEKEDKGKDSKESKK
# assay notes: Nav1.7 PatchXpress 7000 automated electrophysiology assay (HEK cells stably expressing hSCN9A)
# Format: cell-based
# applied conditions: voltage-clamped at V1/2 of inactivation, read-out: Nav1.7 EIC50
Labelling field: enter Fulfilled if recorded IC50 is less than 2000 nM. Enter Not fulfilled if it equals or exceeds that cut-off.

Check out these entries, answers already filled in.
smiles_code=CS(=O)(=O)NC(=O)c1ccc(Oc2cccc(-c3ccccc3)c2)c(C#N)c1 assigned_class=Fulfilled
smiles_code=COc1cc(C#N)ccc1Oc1cc(F)c(C(=O)NS(C)(=O)=O)cc1F assigned_class="Not fulfilled"
smiles_code=COc1cc(Oc2ccc(Cl)c(C(F)(F)F)c2)c(F)cc1C(=O)NS(C)(=O)=O assigned_class="Not fulfilled"
smiles_code=Cc1ccc(F)c(Oc2ccc(C(=O)NS(C)(=O)=O)cc2)c1 assigned_class="Not fulfilled"
smiles_code=CS(=O)(=O)NC(=O)c1cc(F)c(Oc2cc(F)cc(F)c2)cc1F assigned_class="Not fulfilled"
smiles_code=Cc1ccc(Oc2cc(F)c(C(=O)NS(C)(=O)=O)cc2F)cc1Cl assigned_class=Fulfilled

Please state whether IC50 is below 2000 nM for `CS(=O)(=O)NC(=O)c1ccc(Cc2ccc(Cl)c(Cl)c2)cc1`
Fulfilled

Please state whether IC50 is below 2000 nM for `COc1ccc(Cl)cc1Oc1cc(F)c(C(=O)NS(C)(=O)=O)cc1Cl`
Not fulfilled

Please state whether IC50 is below 2000 nM for `COc1ccc(Oc2cc(F)c(C(=O)NS(C)(=O)=O)cc2F)c(Cl)c1`
Not fulfilled

* * *

# measurement target: Nav1.7 (or SCN9A) channel (Homo sapiens, UniProt Q15858)
# Construct: expressed in transfected cells
# assay notes: Nav1.7 PatchXpress 7000 automated electrophysiology assay (HEK cells stably expressing hSCN9A)
# Format: cell-based
# applied conditions: voltage-clamped at V1/2 of inactivation, read-out: Nav1.7 EIC50
pIC50: −log10 of the molar value.
measurement label: pIC50

Check out these entries, answers already filled in.
compound="COc1cc(Cl)ccc1Oc1cc(F)c(C(=O)NS(C)(=O)=O)cc1F [Example 47]" endpoint_value=5.40
compound="CS(=O)(=O)NC(=O)c1cc(F)c(Oc2cccc(Cl)c2F)cc1F [Example 149]" endpoint_value="< 6.00"
compound="Cc1ccccc1Oc1cc(F)c(C(=O)NS(C)(=O)=O)cc1F [Example 111]" endpoint_value="< 5.52"
compound="COc1cc(Cl)ccc1Oc1ccc(C(=O)NS(C)(=O)=O)c(F)c1 [Example 64]" endpoint_value="< 5.52"
compound="CS(=O)(=O)NC(=O)c1ccc(Oc2ccccc2)c(Cl)c1 [Example 252]" endpoint_value=5.92

Provide each entry's pIC50 from the list below.
1. Cc1ccc(C)c(Oc2cc(F)c(C(=O)NS(C)(=O)=O)cc2F)c1 [Example 127]
2. CC(C)Oc1ccccc1Oc1cc(F)c(C(=O)NS(C)(=O)=O)cc1F [Example 90]
3. CS(=O)(=O)NC(=O)c1ccc(Oc2ccc(Cl)c(C(F)(F)F)c2)cc1 [Example 15]
4. COc1cc(C(=O)NS(C)(=O)=O)ccc1Cc1ccc(Cl)c(Cl)c1 [Example 322]

1: < 5.52; 2: < 6.52; 3: 6.03; 4: < 5.52
